PROTOCOL: qHTS profiling of the MIPE4 collection as inhibitors of Plasmodium falciparum (3D7) proliferation (AID 743344)
PARTICULARS: P. falciparum 3D7 in erythrocytes, SYBR Green DNA fluorescence, 72 h; at 28.5 µM unless noted
Binary call on parasite growth, % of DMSO control: t from 20% upward, f beneath that.

{"columns": ["MOLECULE", "LABEL_CLASS"],
 "data": [
  ["CN[C@@H](C)C(=O)N[C@H]1CN(C(=O)CC(C)C)CC[C@H]2CC[C@@H](C(=O)NC(c3ccccc3)c3ccccc3)N2C1=O", "t"],
  ["O=C1c2c(O)cc(O)cc2O[C@H](c2cc(O)c(O)c(O)c2)[C@H]1O", "t"],
  ["C=CCc1ccc(O)c(-c2ccc(O)c(CC=C)c2)c1", "t"],
  ["NS(=O)(=O)c1cccc2c1C(=O)c1cccc(O)c1C2=O", "f"],
  ["COCCOC(=O)C1=C(C)NC2=C(C(=O)CC(c3ccccc3OC)C2)C1c1cccc(O)c1 (stereo not drawn)", "f"],
  ["O=C(O)c1c(Cl)c(Cl)c(Cl)c(Cl)c1-c1c2cc(I)c(=O)c(I)c-2oc2c(I)c(O)c(I)cc12", "t"],
  ["CO[C@H]1C[C@@H]2CC[C@@H](C)[C@@](O)(O2)C(=O)C(=O)N2CCCC[C@@H]2C(=O)O[C@H]([C@H](C)C[C@@H]2CC[C@H](OP(C)(C)=O)[C@H](OC)C2)CC(=O)[C@H](C)C=C(C)[C@@H](O)[C@@H](OC)C(=O)[C@H](C)C[C@H](C)C=CC=CC=C1C", "f"],
  ["O=C(NOCC(O)CO)c1cc(Br)c(F)c(F)c1Nc1ccc(I)cc1F (stereo not drawn)", "t"],
  ["CO[C@H]1C[C@@H]2CC[C@@H](C)[C@@](O)(O2)C(=O)C(=O)N2CCCC[C@@H]2C(=O)O[C@H]([C@@H](C)C[C@@H]2CC[C@H](O)[C@H](OC)C2)CC(=O)[C@H](C)C=C(C)[C@@H](O)[C@@H](OC)C(=O)[C@H](C)C[C@H](C)C=CC=CC=C1C", "f"],
  ["O=C(Nc1ccccc1-c1cn2c(CN3CCNCC3)csc2n1)c1cnc2ccccc2n1", "f"],
  ["c1ccc2c(-c3cnn4cc(-c5ccc(N6CCNCC6)cc5)cnc34)ccnc2c1", "f"],
  ["O=C1Nc2ccc(Cl)cc2C(C#CC2CC2)(C(F)(F)F)O1 (stereo not drawn)", "t"],
  ["O=c1cc(-c2ccc(O)cc2)oc2cc(O)cc(O)c12", "f"],
  ["C[C@@H]1CCN(C(=O)CC#N)C[C@H]1N(C)c1ncnc2[nH]ccc12", "t"],
  ["CO[C@H]1C(=O)[C@]2(C)[C@@H](OC)C[C@H]3OC[C@@]3(OC(C)=O)[C@H]2[C@H](OC(=O)c2ccccc2)[C@]2(O)C[C@H](OC(=O)[C@H](O)[C@@H](NC(=O)OC(C)(C)C)c3ccccc3)C(C)=C1C2(C)C", "f"],
  ["O=c1cc(-c2ccccc2)oc2cc(O)c(O)c(O)c12", "f"],
  ["CN(C)c1cc(NC(=O)CNC(C)(C)C)c(O)c2c1C[C@@H]1C[C@H]3[C@H](N(C)C)C(=O)C(C(N)=O)=C(O)[C@@]3(O)C(=O)C1=C2O", "t"],
  ["C=C1C(=O)OC(CCCCCCCC)C1C(=O)O (stereo not drawn)", "t"],
  ["CCCCCNC(=O)N1CCC(CN(Cc2ccc(Cl)cc2)Cc2ccc([N+](=O)[O-])s2)C1 (stereo not drawn)", "t"],
  ["O=c1cc(-c2cccc3c2Sc2ccccc2S3)oc(N2CCOCC2)c1", "t"],
  ["CC[C@@H]1C=C(C)C[C@H](C)C[C@H](OC)[C@H]2O[C@@](O)(C(=O)C(=O)N3CCCC[C@@H]3C(=O)O[C@H](C(C)=C[C@@H]3CC[C@H](Cl)[C@H](OC)C3)[C@H](C)[C@@H](O)CC1=O)[C@H](C)C[C@H]2OC", "t"],
  ["NC(=O)[C@@H](CCC(F)(F)F)N(Cc1ccc(-c2ncon2)cc1F)S(=O)(=O)c1ccc(Cl)cc1", "t"],
  ["CO[C@@H](C(=O)N1Cc2[nH]nc(NC(=O)c3ccc(N4CCN(C)CC4)cc3)c2C1)c1ccccc1", "f"],
  ["NC(=O)NN=Cc1ccc([N+](=O)[O-])o1", "f"],
  ["CC(C)(C)c1cc(C(=O)O)c(NC(=O)Nc2ccc3[nH]ncc3c2)s1", "t"],
  ["CNC1CCC(N(Cc2cccc(-c3ccncc3)c2)C(=O)c2sc3c(F)ccc(F)c3c2Cl)CC1 (stereo not drawn)", "f"],
  ["CN(C[C@@H]1COCCO1)S(=O)(=O)Nc1ccc2ccc3ncc(-c4cnn(C)c4)cc3c(=O)c2c1", "f"],
  ["CCc1ccc(OCc2ccccc2C(=O)Nc2ccc3nc(C)cc(N)c3c2)cc1", "f"],
  ["Clc1ccc(-c2nc3sccn3c2C=NOCc2ccc(Cl)c(Cl)c2)cc1", "t"],
  ["C[C@]12CC[C@@H]3c4ccc(O)cc4CC[C@H]3[C@H]1C[C@@H](O)[C@H]2O", "t"],
  ["O=C1C(Cl)=C(NCCN2CCOCC2)C(=O)c2ncccc21", "f"],
  ["CC(=Cc1ccccc1)C=C1SC(=S)N(CC(=O)O)C1=O", "t"],
  ["COC[C@@H](c1ccc(C(F)(F)F)cc1)N1CCN(C2(C)CCN(C(=O)c3c(C)ncnc3C)CC2)C[C@H]1C", "t"]
]}

Taken from PubChem BioAssay (NCATS).
